Reported Ki is given for each of the following compounds.
target: α1C Human Adrenergic Receptor (Homo sapiens); construct: The entire coding region of α1C (1401 bp); expressed in transfected cells; assay: Radioligand binding, [3H]prazosin, cloned human α1C adrenergic receptor; conditions: cloned human receptor in LM(tk-) cell membranes, SEM and n in lines below, read-out: pKi alpha-1 1c (converted)
Sequence (P35348 whole entry): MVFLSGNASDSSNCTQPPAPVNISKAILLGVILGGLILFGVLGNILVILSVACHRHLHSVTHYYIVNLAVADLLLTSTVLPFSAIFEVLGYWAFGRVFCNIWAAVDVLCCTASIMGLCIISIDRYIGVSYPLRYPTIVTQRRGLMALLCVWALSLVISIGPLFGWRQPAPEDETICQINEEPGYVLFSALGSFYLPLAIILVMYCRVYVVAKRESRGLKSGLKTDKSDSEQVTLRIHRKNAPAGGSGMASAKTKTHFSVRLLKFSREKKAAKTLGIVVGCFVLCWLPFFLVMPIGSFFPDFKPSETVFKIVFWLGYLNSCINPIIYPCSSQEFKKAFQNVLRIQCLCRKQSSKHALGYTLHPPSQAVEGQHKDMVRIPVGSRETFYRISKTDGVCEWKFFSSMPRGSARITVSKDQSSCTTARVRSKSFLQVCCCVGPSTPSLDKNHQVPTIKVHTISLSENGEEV
Structures can show the parent of a compound that is named as a salt.

COMPOUND | TARGET SYSTEM | Ki [nM]
CC1=C(C(N)=O)C(c2ccc([N+](=O)[O-])cc2)C(C(=O)NCCCN2CCC(c3ccccc3)CC2)=C(C)N1 (stereo not shown) [Example 60] | α1C Human Adrenergic Receptor (Homo sapiens) | 2.75
COC(=O)C1=C(C)NC(C)=C(C(=O)NCCCN2CCC(c3ccccc3)CC2)C1c1ccc(C)cc1 (stereo not shown) [Example 31] | α1C Human Adrenergic Receptor (Homo sapiens) | 1.17
COC(=O)C1=C(C)NC(C)=C(C(=O)NCCCN2CCc3cc(OC)c(OC)cc3C2)C1c1ccc([N+](=O)[O-])cc1 (stereo not shown) [Example 57, hydrochloride hydrate] | α1C Human Adrenergic Receptor (Homo sapiens) | 603
COC(=O)C1=C(C)NC(C)=C(C(=O)NCCCN2CCC(c3ccccc3)(c3ccccc3)CC2)C1C1CCCCC1 (stereo not shown) [Example 6] | α1C Human Adrenergic Receptor (Homo sapiens) | 148
COC(=O)C1=C(C)NC(C)=C(C(=O)NCCN2CCC(c3ccccc3)(c3ccccc3)CC2)C1c1ccc([N+](=O)[O-])cc1 (stereo not shown) [Example 52, hydrochloride hemihydrate] | α1C Human Adrenergic Receptor (Homo sapiens) | 8.71
COC(=O)C1=C(C)NC(C)=C(C(=O)NCCCN2CCC(c3ccccc3)CC2)C1c1ccc(Cl)c([N+](=O)[O-])c1 (stereo not shown) [Example 17] | α1C Human Adrenergic Receptor (Homo sapiens) | 0.537
COC(=O)C1=C(C)NC(C)=C(C(=O)NCCCN2CCC(c3ccccc3)(c3ccccc3)CC2)C1c1ccc(C(F)(F)F)cc1 (stereo not shown) [Example 1] | α1C Human Adrenergic Receptor (Homo sapiens) | 30.2
COC(=O)C1=C(C)NC(C)=C(C(=O)NCCCCN2CCC(c3ccccc3)CC2)C1c1ccc([N+](=O)[O-])cc1 (stereo not shown) [Example 3, hydrochloride hydrate] | α1C Human Adrenergic Receptor (Homo sapiens) | 5.89
COC(=O)C1=C(C)NC(C)=C(C(=O)NCCCN2CCC(c3ccccc3)(c3ccccc3)CC2)C1c1ccc2c(c1)OCO2 (stereo not shown) [Example 11] | α1C Human Adrenergic Receptor (Homo sapiens) | 1.12
COC(=O)C1=C(C)NC(C)=C(C(=O)N(C)CCCN2CCC(c3ccccc3)(c3ccccc3)CC2)C1c1ccc([N+](=O)[O-])cc1 (stereo not shown) [Example 46, hydrochloride hemihydrate] | α1C Human Adrenergic Receptor (Homo sapiens) | 20.4
COC(=O)C1=C(C)NC(C)=C(C(=O)NCCCN2CCC(c3ccccc3)(c3ccccc3)CC2)C1c1ccc(F)cc1 (stereo not shown) [Example 20] | α1C Human Adrenergic Receptor (Homo sapiens) | 3.8
CCC1=C(C(=O)NC2CCN(Cc3ccccc3)CC2)C(c2ccc([N+](=O)[O-])cc2)C(C(=O)OC)=C(C)N1 (stereo not shown) [Example 75, hydrochloride] | α1C Human Adrenergic Receptor (Homo sapiens) | 794
CC1=C(C#N)C(c2ccc([N+](=O)[O-])cc2)C(C(=O)NCCCN2CCC(c3ccccc3)(c3ccccc3)CC2)=C(C)N1 (stereo not shown) [Example 37] | α1C Human Adrenergic Receptor (Homo sapiens) | 22.9
